Source listed as patent US20260008852A1.

Target: T1, his-tagged B7-H3 (UniProt Q5ZPR3-2 29-245, limits assumed)
T1 construct: also called CD276; not shown: His tag
T1 sequence (looked up): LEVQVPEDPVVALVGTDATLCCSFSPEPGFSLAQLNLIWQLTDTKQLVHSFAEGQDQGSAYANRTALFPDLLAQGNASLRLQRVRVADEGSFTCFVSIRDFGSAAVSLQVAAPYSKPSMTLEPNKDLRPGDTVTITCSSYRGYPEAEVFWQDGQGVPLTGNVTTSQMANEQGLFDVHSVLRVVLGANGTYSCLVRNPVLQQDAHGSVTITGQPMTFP
Assay: SPR, Carterra LSA; binder captured by anti-human Fc, his-tagged B7-H3 injected
Provide the reported Kd of each item.
Form entry: value (nM) — number only.

For this binder ( 40579p1.H6 scFv-Fc (scFv, V domains shown) VH: EVQLLESGGGLVQPGGSLRLSCAASGFTVNNAWMSWVRQAPGKGLEWVSAISYGGSIYYADSVKGRFTISRDNSKNTLYLQMNSLRAEDTAVYYCAKHRSTTYNGMDVWGQGTTVTVSS VL: EIVLTQSPGTLSLSPGERATLSCRASQSVGSFLAWYQQKPGQAPRLLIYGANTRAAGIPDRFRGSGNGTDFTLTISSLQSEDFAVYYCQQYYDWPPLTFGGGTKVEIK ), measured Kd is 7.72

Value of Kd reported for the binder 40579p1.G1 scFv-Fc (scFv, V domains shown, Tested as scFv-Fc supernatant) VH: EVQLLESGGGLVQPGGSLRLSCAASGFNFSSYWMSWVRQAPGKGLEWVSGISISYGGNAYYADSVKGRFTVSRDNSKNTLYLQMNSLRAEDTAVYYCGRDRSPYQYRSMDVWGQGTTVTVSS VL: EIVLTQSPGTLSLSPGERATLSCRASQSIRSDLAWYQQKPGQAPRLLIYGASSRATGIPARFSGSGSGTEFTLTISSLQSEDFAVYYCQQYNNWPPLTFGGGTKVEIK is 6.75

The measured Kd associated with 40579p1.F7 scFv-Fc (scFv, V domains shown, Tested as scFv-Fc supernatant) VH: EVQLLESGGGLVQPGGSLRLSCAASGFTFSDYYMSWVRQAPGKGLEWVSGISISYGGNAYYADSVKGRFTVSRDNSKNTLYLQMNSLRAEDTAVYYCGRDRSPYQYRSMDVWGQGTTVTVSS VL: EIVLTQSPGTLSLSPGERATLTCRASQSVGDFLAWYQQKPGQAPRLLIYGASTRAAGIPARFRGSGSGTDFTLTISSLQSEDFAVYYCQQYKNWPPLTFGGGTKVEIK reads 212

Consider 40633p1.1.G5 scFv-Fc (scFv, V domains shown, Tested as scFv-Fc supernatant) VH: EVQLLESGGGLVQPGGSLRLSCAASGFIVNYYGMSWVRQPPGKGLEWVSAIKQDGSEKYYADSVKGRFTISRDNSKTTLYLQMNSLRAEDTAVYYCARHWNDYSNGMNVWGQGTTVTVSS VL: QSVLTQPPSASGTPGQRVTISCSGSWSNIGSYNSHWYQKLPGTAPKLLIYTTDRRPSGVPDRFSGSKSGTSASLAISGLQSEDEADYYCGTWDDSLNVWVFGGGTKLTVL . Its measured Kd is 437

Entry Benchmark MGA-271 (antibody, V domains shown) VH: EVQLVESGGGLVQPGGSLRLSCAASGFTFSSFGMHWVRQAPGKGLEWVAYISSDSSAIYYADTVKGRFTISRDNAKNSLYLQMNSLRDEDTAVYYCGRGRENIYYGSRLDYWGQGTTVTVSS VL: DIQLTQSPSFLSASVGDRVTITCKASQNVDTNVAWYQQKPGKAPKALIYSASYRYSGVPSRFSGSGSGTDFTLTISSLQPEDFATYYCQQYNNYPFTFGQGTKLEIK — recorded Kd = 164

Record summary for 40579p1.H7 scFv-Fc (scFv, V domains shown, Tested as scFv-Fc supernatant) VH: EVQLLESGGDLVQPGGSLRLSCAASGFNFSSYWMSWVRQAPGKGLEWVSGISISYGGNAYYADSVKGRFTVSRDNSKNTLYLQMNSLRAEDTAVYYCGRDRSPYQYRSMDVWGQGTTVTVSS VL: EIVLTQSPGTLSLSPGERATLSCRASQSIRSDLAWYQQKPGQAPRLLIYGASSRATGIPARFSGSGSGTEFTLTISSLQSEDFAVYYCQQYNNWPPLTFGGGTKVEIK : reported Kd = 5.57

Recorded Kd (binder 40633p1.1.F2 scFv-Fc (scFv, V domains shown, Tested as scFv-Fc supernatant) VH: EVQLLESGGGLVQPGGSLRLSCVASGLTFNGFAMTWVRQAPGKGLEWVSGISWNSGSIYYADSVKGRFTISRDNSKNTVYLQMSSLRAEDTAIYYCAKNWNDYYNSMDVWGQGTTVTVSS VL: QSVLTQPPSASGTPGQRVTISCSGSRSNIGTKYVYWYQQFPGTAPKLLIYTTDRRPSGVPDRFSGSKSGTSASLAISGLQSEDEADYYCSAWDDRLNAWVFGGGTKLTVL ): 298

Query 40511p1.2.A4 scFv-Fc (scFv, V domains shown, Tested as scFv-Fc supernatant) VH: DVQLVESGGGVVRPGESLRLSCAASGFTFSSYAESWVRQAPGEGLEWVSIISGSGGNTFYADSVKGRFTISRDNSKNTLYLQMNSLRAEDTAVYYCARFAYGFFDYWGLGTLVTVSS VL: EIVLTQSPGTLSVSPGERATLSCRASQTVGSKLAWYQQKPGQAPRLLIYDASTRATDIPDRFSGSGSGTDFTLTISSLQSEDFAVYYCQQYRNWPPLTFGGGTKVEIK yields Kd of 52

Value of measured Kd for the entry 40579p1.B8 scFv-Fc (scFv, V domains shown) VH: EVQLLESGGGLVQPGGSLRLSCAASGFTFSDYYMSWVRQAPGKGLEWVSGISMSSTIYYADSVKGRFTISRDNSKNTLYLQMNSLRAEDTAVYYCARHRSPYQYRSMDVWGQGTTVTVSS VL: EIVLTQSPGTLSLSPGERATLSCRASQSVNSKLAWYQQKPGQPPSLLIYDASRRATGIPDRFSGSGSGTEFTLTISSLQSEDFAVYYCQQYNNWPPLTFGGGTKVEIK : 3.1

Recorded result, 40633p1.2.E11 scFv-Fc (scFv, V domains shown) VH: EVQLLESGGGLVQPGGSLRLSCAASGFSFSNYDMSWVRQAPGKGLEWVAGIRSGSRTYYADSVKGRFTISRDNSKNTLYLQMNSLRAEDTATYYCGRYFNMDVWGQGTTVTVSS VL: QSVLTQPPSASGTPGQRVTISCSGSTFNIGTNLVHWYQQLPGTAPKLLIYLTDRRPPGVPDRFSGSKSGTSASLAISGLQSEDEANYYCATWDDSLNSFLFGGGTKLTVL , Kd: 1.11
